# Test system: MOLM-14 cells
# experiment notes: cells
# Assay type: cell-based
# reported conditions: MOLM-14 (FLT3-ITD), 72 hours; read-out: IC50 DCA
measure name: IC50 (mM)
State the answer as a number, implicitly in mM.

So for O=C(O)C(Cl)Cl [dichloroacetate] , the logged IC50 turned out to be 15.9
